Ref: patent US20240400689A1

tested.target: T1, human CD276 protein (human, UniProt Q5ZPR3 29-534)
T1 construct: whole, on cells; for SKOV3 and the other cancer lines the protein is the cells' own; also called B7-H3; B7H3
T1 sequence (looked up): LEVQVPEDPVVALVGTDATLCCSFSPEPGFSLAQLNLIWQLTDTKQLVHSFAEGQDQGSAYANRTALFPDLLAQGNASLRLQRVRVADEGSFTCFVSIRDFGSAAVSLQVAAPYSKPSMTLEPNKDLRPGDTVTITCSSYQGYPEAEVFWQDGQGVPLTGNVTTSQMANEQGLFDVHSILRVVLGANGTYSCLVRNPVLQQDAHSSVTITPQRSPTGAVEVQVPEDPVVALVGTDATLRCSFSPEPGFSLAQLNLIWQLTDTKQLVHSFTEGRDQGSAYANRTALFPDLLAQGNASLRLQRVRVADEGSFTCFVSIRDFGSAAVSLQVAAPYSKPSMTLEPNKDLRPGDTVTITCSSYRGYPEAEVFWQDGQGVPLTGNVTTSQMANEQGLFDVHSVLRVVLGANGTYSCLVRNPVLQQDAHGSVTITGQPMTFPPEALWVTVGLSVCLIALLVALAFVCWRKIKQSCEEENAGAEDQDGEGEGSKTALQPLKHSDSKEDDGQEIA
assay.details: FACS on CHO-S-hCD276 cells
measured.endpoint: FACS MFI
Response field accepts a number only; no unit should be typed.

| binder | numeric.result |
| --- | --- |
| 20-A2-D10-G8 (antibody, V domains shown, mouse monoclonal antibody (hybridoma)) VH: QVQLQQSGPELVRPGVSVKISCKGSGYTFTDYTMHWVKESHAQSLEWIGVISTYYGNTNYNQNFKGKATLTVDKSSSTAYMELAGLTSEDSAIYYCARASYGSGYGPYYWYFDVWGAGTTVTVSS VL: DIQMTQSPASLFASVGETVTITCRASEKIYSYLAWYFQKQGKSPQFLVYNANALAEGVPSRFSGSGSGTQFSLKIKSLQPEDFGTYYCQHHYGSPVTFGAGSKLELK | 77100 |

Fill in the blank: the reported FACS MFI of 16-C6-F7-F5 (antibody, V domains shown, mouse monoclonal antibody (hybridoma)) VH: QIQLVQSGPEVKKPGETVKISCKASGYTFTKYGINWVKQAPGEGLKWMGWIWTYTGKPTYGDDFKGRFAFSLETSASTAYLQISDLKIEDMATYFCARDDGYYYTMNYWGQGTSVTVSS VL: DIVMTQTPLSLPVSLGDQASISCRSSQSLLHTNGDTYLHWYLQKAGQPPKLLIYKVSNRFSGVPDRFSGSGSGTDFTLKISRVEAEDLGVYFCSQSTHIPWTFGGGTKLEIK is ____. 141000
